Where do these numbers come from? They come from the supplement of paper PMC10065799.

Target: Fes (UniProt P07332)
Sequence (P07332 whole entry, looked up): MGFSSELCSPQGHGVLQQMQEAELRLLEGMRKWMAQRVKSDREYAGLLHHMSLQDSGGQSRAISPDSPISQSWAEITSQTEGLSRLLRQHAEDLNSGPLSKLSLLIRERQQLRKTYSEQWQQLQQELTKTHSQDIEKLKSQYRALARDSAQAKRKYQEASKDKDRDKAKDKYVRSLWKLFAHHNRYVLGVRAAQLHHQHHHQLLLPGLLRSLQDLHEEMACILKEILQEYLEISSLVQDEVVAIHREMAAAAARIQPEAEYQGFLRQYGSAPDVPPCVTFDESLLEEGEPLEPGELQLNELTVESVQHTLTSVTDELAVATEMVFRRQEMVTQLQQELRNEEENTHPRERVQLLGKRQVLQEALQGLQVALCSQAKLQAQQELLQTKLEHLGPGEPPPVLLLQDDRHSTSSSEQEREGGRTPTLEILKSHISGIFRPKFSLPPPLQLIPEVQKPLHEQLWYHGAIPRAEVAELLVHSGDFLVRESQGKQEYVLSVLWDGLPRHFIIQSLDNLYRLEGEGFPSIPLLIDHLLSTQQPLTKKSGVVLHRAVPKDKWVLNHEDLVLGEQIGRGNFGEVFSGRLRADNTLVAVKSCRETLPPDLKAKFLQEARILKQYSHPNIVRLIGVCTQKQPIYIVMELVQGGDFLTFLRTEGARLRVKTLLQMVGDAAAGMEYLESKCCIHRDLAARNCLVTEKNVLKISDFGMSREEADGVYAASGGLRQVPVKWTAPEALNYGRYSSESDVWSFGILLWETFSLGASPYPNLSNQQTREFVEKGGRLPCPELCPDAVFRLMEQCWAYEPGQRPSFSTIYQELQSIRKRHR
Test: phosphorylation enrichment, bacterial display (enrichment ratio); higher = better substrate or ligand; peptides without Tyr show the background;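 also: 11-residue human phosphosite peptides and single-mutation variants displayed on the E. coli surface, counted by deep sequencing, each peptide's frequency after selection divided by its frequency in the unselected input library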;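 also: frequency after pTyr selection over input frequency; kinase dosed for 20-30% of maximal phosphorylation in three min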
attribute-measured: phosphorylation enrichment

Known results for sequences:
>>> reported_value("GGSTFYIDTNA [ACTL6A_Y69_P66S_YF]")
0.987
>>> reported_value("IKKFKYGIEEH [GJA1_Y137]")
0.697
>>> reported_value("TIMTDYNPNYC [ALK_Y1092]")
1.26

Now take the following sequence into account.
Which phosphorylation enrichment is reported for this sequence? RVVVPYEPPEV [TP53_Y220_S215R]
0.99

###

Target: Fes (UniProt P07332)
Assay: phosphorylation enrichment, bacterial display (enrichment ratio); higher = better substrate or ligand; peptides without Tyr show the background
We'd kindly ask you to apply these phosphorylation enrichment classes: band A = under 0.7, band B = from 0.7 up to 1, band C = 1 and over

For orientation, consider the following solved cases.
>>> label_value("QGIYGYHHYMQ [UFSP2_Y287]")
"band C"
>>> label_value("EERNPYYSSAR [MCCC2_Y520_G517R]")
"band B"
>>> label_value("VFSIDYFRVGG [NTRK2_Y706_T704I_YF]")
"band C"
>>> label_value("PLFSKYWPNHI [GREB1L_Y1560_R1558S_YF]")
"band C"
>>> label_value("RLGDLYEEEMR [VIM_Y150]")
"band C"

Assign a category based on measured phosphorylation enrichment for DGQSVYKLTDF [TBK1_Y153] and give only the class name.
band B

Now the sequence KACNPYKPPGP
band A

Would you mind doing NTGDYYDLYGG [PTPN11_Y63] as well?
band C

KFDLMYAKWAF [TUBA3E_Y399] ?
band C

Consider next the sequence IFRASYVPFAA [RBM47_Y541_G538R_YF] in the same way.
band C

Then DDPRRYQKYGY [OAS1_Y362] ?
band A

Can you check KDHPDYEFQPR [SOX9_Y172_K173E_YF] next?
band B
